# test: Restrictive medium S. cerevisiae growth inhibition, OD615, pilot screen of yeast lifespan reduction project, restrictive growth control (AID 706);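 note: modified DeaD lifespan yeast strain shifted to restrictive glucose medium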
# condition notes: OD615, 48 h, at 10 µM, stronger effect = higher value
value kind: growth inhibition (%)

>>> df
                                   compound  measurement_unit  recorded_value
0    O=C(c1cc(-c2ccc(Cl)c(Cl)c2)on1)N1CCCC1                 %           0.315
1  CCCCS(=O)CC(CS(=O)CCCC)OC(=O)c1ccccc1 (stereo unspecified)                 %            5.83
2  COc1ccc(C(=O)c2coc3ccc(O)c(CN4CCOCC4)c23)cc1                 %             -12
3  COc1cccc(C2CC(c3ccc(Cl)cc3Cl)n3nc(N)nc3N2)c1 (stereo unspecified)                 %            18.6
4  COc1ccc(C2NC(=O)c3n[nH]c(C)c32)c(OC)c1 (stereo unspecified)                 %             7.6
5  CCc1nc2oc(C(=O)c3ccccc3)c(N)c2c2c1COC(C)(C)C2                 %           -9.15

###

# test: RAM signaling pathway blockade in yeast – S. cerevisiae, Pdr1DBD-CYC8 efflux-inhibited sensitized strain, primary screen (AID 1298);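 note: 0% = DMSO untreated cells without growth and 100% = 10 µM 1-NA-PP1 full growth; higher means more yeast growth rescued from 5-FOA killing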
# condition notes: S. cerevisiae cbk1-as DSE1-URA3 strain, 5-FOA growth OD615, 2 d; at 50 µM; stronger effect = higher value
Parameter RAM network inhibition: see the listing below.
value kind: RAM network inhibition (%)

                         structure_notation  recorded_value
0  COc1ccc(-c2nnc(SCC(=O)Nc3cc(F)ccc3C)o2)cc1            0.58
1          Cc1cc(C)c(C)c(OCC(=O)NCCN(C)C)c1            0.26
2  CCOc1ccc(-c2cc(NC(=O)Cn3ncc4c3-c3ccccc3OC4)on2)cc1OCC           -0.17
3  CCCc1cc(C(=O)Nc2sc3c(c2C(=O)OCC)CCCC3)no1            3.28
4  CC1CCN(S(=O)(=O)c2ccc3c(c2)oc(=O)n3CC(=O)NCc2ccc3c(c2)OCO3)CC1            2.06

###

Listed next: entries and their corresponding viability.
# test: growth suppression of beta-catenin knockout HCT116, pilot screen, human colon tumor cells (AID 823);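 note: 0% = wells killed by 20 µM Hyamine and 100% = untreated DMSO cell wells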
# condition notes: CellTiter-Glo, 60 h, at 10 µM, stronger effect = lower value
Results filed as inconclusive are left out.
value kind: viability (%)

>>> print(df.to_string())
                                   compound  measurement_unit  recorded_value
0  CCN1CCN(C(=O)CSCc2nc(-c3ccc(OC)c(OC)c3)oc2C)CC1                 %             101
1  COc1ccc(NC(=O)N(CCC(C)C)C(C)c2ccccn2)c(OC)c1 (stereo not given)                 %            79.2
2   CC(=O)c1c(NC(=O)C(C)C)nc(C)nc1-c1ccccc1                 %            98.4
3  O=C(COC(=O)c1ccc(S(=O)(=O)N2CCOCC2)cc1)NC1CCCCCC1                 %             101
4  Cc1nn(C)c(C)c1S(=O)(=O)N(CC(=O)Nc1nccs1)c1ccc(C(C)C)cc1                 %              99

Attribution: PubChem BioAssay
